Ref: paper PMC6711467

assay: Vaginal PK study: IQB4012 gel; settings: female, pigtailed macaque, rectal fluid, other: vaginal, 0.5 ml
endpoint_label: concentration at 24 h (ng/mL)
Lab book: enter the figure in ng/mL, no units written.

C[C@H](Cn1cnc2c(N)ncnc21)OCP(=O)(O)O [TFV, tenofovir] has a reported concentration at 24 h of 53

====

assay: Vaginal PK study: IQB4012 gel; settings: female, pigtailed macaque, vaginal fluid, proximal, other: vaginal, 1.5 ml gel
endpoint_label: concentration at 24 h (ng/mL)
Lab book: enter the figure in ng/mL, no units written.

`C[C@H](Cn1cnc2c(N)ncnc21)OCP(=O)(O)O` has a reported concentration at 24 h of 18000

====

assay: Vaginal PK study: IQB4012 gel; conditions: female, pigtailed macaque, vaginal fluid, proximal, other: vaginal, 1.5 ml
endpoint_label: concentration at 2 h (µg/mL)
Lab book: enter the figure in µg/mL, no units written.

`C[C@H](Cn1cnc2c(N)ncnc21)OCP(=O)(O)O` has a reported concentration at 2 h of 30.4

====

assay: Vaginal PK study: IQB4012 gel; settings: female, pigtailed macaque, vaginal tissue, medial, other: vaginal, 1.5 ml gel
endpoint_label: concentration at 4 h (ng/g)
Lab book: enter the figure in ng/g, no units written.

`C[C@H](Cn1cnc2c(N)ncnc21)OCP(=O)(O)O` has a reported concentration at 4 h of 10200

====

experiment: Vaginal PK study: IQB4012 gel; settings: female, pigtailed macaque, vaginal fluid, proximal, other: vaginal, 0.5 ml
endpoint_label: concentration at 4 h (µg/mL)
Lab book: enter the figure in µg/mL, no units written.

`C[C@H](Cn1cnc2c(N)ncnc21)OCP(=O)(O)O` has a reported concentration at 4 h of 124

====

assay: Rectal PK study: IQB4012 gel; format: in vivo, pigtailed macaques; conditions: female, pigtailed, pigtailed macaque, rectal fluid, other: rectal, 1 ml
endpoint_label: concentration at 4 h (ng/mL)
Lab book: enter the figure in ng/mL, no units written.

C[C@H](Cn1cnc2c(N)ncnc21)OCP(=O)(O)O [TFV, tenofovir] has a reported concentration at 4 h of 705

====

experiment: Vaginal PK study: IQB4012 gel; details: female, pigtailed macaque, vaginal fluid, proximal, other: vaginal, 1.5 ml gel
endpoint_label: concentration at 4 h

`C[C@H](Cn1cnc2c(N)ncnc21)OCP(=O)(O)O` has a reported concentration at 4 h of 54.3 µg/mL

====

assay: Vaginal PK study: IQB4012 gel; settings: female, pigtailed macaque, rectal fluids, other: vaginal, 1.5 ml gel
endpoint_label: concentration at 4 h
Reply with a number, then the unit it belongs to.

`C[C@H](Cn1cnc2c(N)ncnc21)OCP(=O)(O)O` has a reported concentration at 4 h of 156 ng/mL

====

experiment: Vaginal PK study: IQB4012 gel; conditions: female, pigtailed macaque, vaginal fluid, distal, other: vaginal, 1.5 ml gel
endpoint_label: concentration at 24 h (µg/mL)
Lab book: enter the figure in µg/mL, no units written.

C[C@H](Cn1cnc2c(N)ncnc21)OCP(=O)(O)O [TFV, tenofovir] has a reported concentration at 24 h of 57

====

test: Vaginal PK study: IQB4012 gel; conditions: female, pigtailed macaque, vaginal tissue, distal, other: vaginal, 0.5 ml
endpoint_label: concentration at 4 h (ng/g)
Lab book: enter the figure in ng/g, no units written.

C[C@H](Cn1cnc2c(N)ncnc21)OCP(=O)(O)O [TFV, tenofovir] has a reported concentration at 4 h of 13400
